method.notes: Covalent inhibition of Streptococcus pyogenes Sortase A N81 deletion mutant assessed as inactivation constant incubated for 60 mins

{"structure.smiles.string": "O=C1NC(=O)C(=C/C=C/c2ccc(OCc3ccc(F)cc3)cc2)C(=O)N1", "unit.string": "µM", "Ki": 5.4}

====

Listed molecules paired with reported IC50
target.system: Sortase A (Staphylococcus aureus, UniProt Q9S446, N24DEL)
method.notes: Inhibition of Staphylococcus aureus sortase A N24 deletion mutant using Abz-LPATG-Dnp as substrate preincubated for 20 mins followed by substrate addition by FRET assay
recorded.endpoint: IC50

{"structure.smiles.string": "COc1ccc(/C=C/C=C2C(=O)NC(=S)NC2=O)cc1", "value.reported": "2800 nM"}
{"structure.smiles.string": "O=C1NC(=O)C(=CNCc2ccc(Br)cc2)C(=O)N1", "value.reported": "> 50000 nM"}
{"structure.smiles.string": "CCCCc1ccc(COc2ccc(/C=C/C=C3C(=O)NC(=O)NC3=O)cc2)cc1", "value.reported": "> 50000 nM"}
{"structure.smiles.string": "O=C1NC(=O)C(=C/C=C/c2ccc(OCc3ccc(OCc4ccccc4)cc3)cc2)C(=O)N1", "value.reported": "> 50000 nM"}
{"structure.smiles.string": "COc1ccc(/C=C/C=C2C(=O)N(C)C(=S)N(C)C2=O)cc1", "value.reported": "> 50000 nM"}
{"structure.smiles.string": "CC(C)CCC(=O)Oc1ccc(/C=C/C=C2C(=O)NC(=O)NC2=O)cc1", "value.reported": "1500 nM"}
{"structure.smiles.string": "O=C1NC(=O)C(=C/C=C/c2ccc(OCc3ccc(Cl)cc3)cc2)C(=O)N1", "value.reported": "2500 nM"}
{"structure.smiles.string": "CC(C)(C)c1ccc(COc2ccc(/C=C/C=C3C(=O)NC(=O)NC3=O)cc2)cc1", "value.reported": "> 50000 nM"}
{"structure.smiles.string": "COc1ccc(C=C2C(=O)NC(=O)NC2=O)cc1", "value.reported": "> 50000 nM"}
{"structure.smiles.string": "O=C1NC(=O)C(=C/C=C/c2ccc(OCc3ccc(F)cc3)cc2)C(=O)N1", "value.reported": "600 nM"}
{"structure.smiles.string": "COc1ccc(COc2ccc(/C=C/C=C3C(=O)NC(=O)NC3=O)cc2)cc1", "value.reported": "1600 nM"}
{"structure.smiles.string": "O=C1NC(=O)C(=C/C=C/c2ccc(OCc3ccc([N+](=O)[O-])cc3)cc2)C(=O)N1", "value.reported": "1300 nM"}
{"structure.smiles.string": "CC(C)C[C@H](NC(=O)OCc1ccccc1)C(=O)Oc1ccc(/C=C/C=C2C(=O)NC(=O)NC2=O)cc1", "value.reported": "5600 nM"}
{"structure.smiles.string": "COc1ccc(/C=C/C=C2C(=O)c3ccccc3C2=O)cc1", "value.reported": "> 50000 nM"}
{"structure.smiles.string": "O=C1NC(=O)C(=C/C=C/c2ccc(OC(=O)[C@H](CO)NC(=O)OCc3ccccc3)cc2)C(=O)N1", "value.reported": "2500 nM"}
{"structure.smiles.string": "O=C1NC(=O)C(=C/C=C/c2ccc(OCc3ccncc3)cc2)C(=O)N1", "value.reported": "> 50000 nM"}
{"structure.smiles.string": "CN(C)c1ccc(/C=C/C=C2C(=O)NC(=O)NC2=O)cc1", "value.reported": "> 50000 nM"}
{"structure.smiles.string": "CC(=O)Oc1ccc(COc2ccc(/C=C/C=C3C(=O)NC(=O)NC3=O)cc2)cc1", "value.reported": "800 nM"}
{"structure.smiles.string": "COC(=O)c1ccc(/C=C/C=C2C(=O)NC(=O)NC2=O)cc1", "value.reported": "2200 nM"}
{"structure.smiles.string": "O=C1NC(=O)C(=CNc2ccc(Br)cc2)C(=O)N1", "value.reported": "> 50000 nM"}
{"structure.smiles.string": "O=C1NC(=O)C(=C/C=C/c2cccc(Cl)c2)C(=O)N1", "value.reported": "1000 nM"}
